Recorded values, source patent US10000456B2.

- ASSAY_TARGET: human LPA1 (Homo sapiens, UniProt Q92633)
- Construct: the full-length cDNA for human LPA1 was obtained by PCR of the reverse transcription reaction
- Sequence (Q92633 whole entry): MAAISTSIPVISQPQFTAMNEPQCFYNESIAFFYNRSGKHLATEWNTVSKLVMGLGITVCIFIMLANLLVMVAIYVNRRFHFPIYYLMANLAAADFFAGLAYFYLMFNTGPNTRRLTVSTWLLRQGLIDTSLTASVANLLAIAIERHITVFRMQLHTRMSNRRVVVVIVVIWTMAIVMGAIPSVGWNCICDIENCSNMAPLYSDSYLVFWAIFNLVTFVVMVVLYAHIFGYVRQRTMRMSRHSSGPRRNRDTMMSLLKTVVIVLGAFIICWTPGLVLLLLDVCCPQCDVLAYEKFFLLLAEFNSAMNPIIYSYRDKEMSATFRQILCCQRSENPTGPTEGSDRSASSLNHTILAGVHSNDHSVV
- PROCEDURE_TEXT: LPA1 calcium flux assay (HLPA1 Ca Flux)
- CONDITION: CHO cells expressing human LPA1, stimulated with 10 nM LPA
pIC50: −log10 of the molar value.
MEASURED_ENDPOINT: pIC50

[[record]]
compound_structure = "Cc1noc(-c2ccc(-c3ccc(C4(C(=O)O)CC4)cc3)cc2)c1Nc1cccc(-c2cccc(C(F)(F)F)c2Cl)n1"
assay_target = "human LPA1 (Homo sapiens, UniProt Q92633)"
recorded_result = "6.00 to 6.52"

